// values below are reported log10 TGI
- System: MALME-3M melanoma
- assay: NCI tumour cell line growth inhibition, 48 h
observedProperty: log10 TGI (log10 of the value in µM)

compound | assaySystem | log10 TGI
COc1cc(/C=C/C(=O)/C=C/c2cc3ccc(Cl)cc3n(Cc3ccccc3)c2=O)ccc1O | MALME-3M melanoma | 0.67
COC1=C(OC)C(=O)C(Sc2ccc3ccccc3c2)=CC1=O | MALME-3M melanoma | 1.45
O=C(CCl)Nc1cc(Cl)c(Cl)cc1Cl | MALME-3M melanoma | 0.46
Nc1nnnc2nc[nH]c12 | MALME-3M melanoma | 0.85
COc1cc(/C=C/c2ccc(Br)cc2)cc(OC)c1OC | MALME-3M melanoma | 1.88
